- System: human GPVI extracellular region-human Fc fusion protein (hGPVI-hFc) (human)
- Sequence (chain, as listed by the source limits assumed): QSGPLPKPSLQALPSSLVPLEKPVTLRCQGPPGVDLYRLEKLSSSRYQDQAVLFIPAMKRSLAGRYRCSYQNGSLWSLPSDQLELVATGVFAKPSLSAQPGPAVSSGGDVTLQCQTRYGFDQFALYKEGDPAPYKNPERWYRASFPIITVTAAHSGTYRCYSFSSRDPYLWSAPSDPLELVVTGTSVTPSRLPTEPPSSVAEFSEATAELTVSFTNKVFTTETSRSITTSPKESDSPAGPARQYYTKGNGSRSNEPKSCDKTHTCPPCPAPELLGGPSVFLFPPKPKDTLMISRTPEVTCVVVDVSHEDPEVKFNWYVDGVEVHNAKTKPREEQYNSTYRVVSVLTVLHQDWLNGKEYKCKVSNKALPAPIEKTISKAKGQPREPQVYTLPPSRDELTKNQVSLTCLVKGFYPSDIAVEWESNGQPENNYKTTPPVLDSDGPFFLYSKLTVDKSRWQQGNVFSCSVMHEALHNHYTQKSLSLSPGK
- Assay text: SPR (BIACORE3000) as in Example 5
Test readout: KD (Relative value) against F1232-37-2 (relative to KD of F1232-37-2)

Binder	Recorded value
F1245-4-1 (antibody, V domains shown) VH: QVQLQQPGAELVKPGASVKLSCKASGCTFTSYWMHWVKQRPGQGLEWIGMIHPNSDNTNYNEKFKSKATLTVDKSSSTAYMHLSSLTSEDSAVYYCATHYYDYVDYWGQGTTLTVSS VL: NIVMTQTPKFLLVSAGDRVTITCKASQSVSNDVAWYQQKPGQSPKLLIYYASNRYTGVPDRFTGSGYGTDFTFTISTVQAEDLAVYFCQQDYSSPWTFGGGTKLEIKR	0.00427
F1249-24-1 (antibody, V domains shown) VH: QVQLQQSGAELVRPGVSVKISCKGSGYTFTDYAMHWVKQSHAKSLEWIGVISTYYGDTSYNQKFKGKATMTVDKSSSTAYMELARLTSEDSAIYYCARAEDYDPWFAYWGQGTLVTVSA VL: DIVLTQSPASLAVSLGQRATISCRASESVDSYGNSFMHWYQQKPGQPPKLLIYRASNLESGIPARFSGSGSRTDFTLTINPVEADDVATYYCQQSDEDPLTFGAGTKLELKR	0.00821
F1245-5-1 (antibody, V domains shown) VH: QVQLQQPGAELVKPGASVKLSCKASGYTFISYWMHWVKQRPGQGLEWIGMIHPNSGSTHYNEKFKSKATLTVDKSSSTAYMQLSSLTSEDSAVYYCARGGVTPVAYWGQGTLVTVSA VL: SIVMTQTPKFLLVSAGDRVTITCKASQSVSNDVAWYQQKPGQSPKLLIYYASNRYTGVPDRFTGSGYGTDFTFTISTVQAEDLAVYFCQQDYSSPWTFGGGTKLEIKR	1.43
F1251-1-1 (antibody, V domains shown) VH: QVNLLQSGAALVKPGASVKLSCKASGYTFTDYYIHWVKQSHGKSLEWIGYINPNSGYTNYNEKFKSKATLTVDKSTNTAYMELSRLTSEDSATYYCTRCNSGYGDWFAYWGQGTLLTVSS VL: DIQMTQSPPVLSASVGDRVTLSCKASQNINKNLDWYQQKHGEAPKLLIYYTNNLQTDIPSRFSGSGSGTDYTLTISSLQPEDVATFYCYQYNSGPGTFGAGTKLELKR	7.9
F1249-20-1 (antibody, V domains shown) VH: QVQLQQSGAELVRPGVSVKISCKGSGYTFTDYAMHWVKQSHAKSLEWIGVISTYYGDTSYNQKFKGKATMTVDKSSSTAYMELARLTSEDSAIYYCARAEDYDPWFAYWGQGTLVTVSA VL: DIVLTQSPASLAVSLGQRATISCRASESVDSYGNSFMYWYQQKPGQPPKLLIYRASNLESGIPARFSGSGSRTDFTLTINPVEADDVATYYCQQSDEDPLTFGAGTKLELKR	0.00205

FYI, the data here is from patent EP1876240B1.
